Field: IC90. Provide a value for each of the compounds that follow.
Tested on: M. tuberculosis H37Rv growth inhibition with meropenem
Protocol text: dose response, H37Rv, with and without meropenem (AID 434987);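 note: growth over 7 days at 37 °C before Alamar Blue read on day 9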
Assay context: measured here: IC90 with meropenem

Consider the worked cases shown below.
Returns the measured IC90 for the input compound. Input: Nc1ncnc2c1c(-c1ccc(Oc3ccccc3)cc1)cn2C1CCCC1
60.3 µM

Thanks! And O=C(OCC(=O)N1CCc2ccccc21)c1ccc(Cl)nc1 ?
> 100 µM

Thanks! And COc1cc(NC(=O)c2ccccc2Cl)ccc1NC(=O)c1ccco1 ?
> 25 µM

Working through the 7 compounds below one at a time, give IC90 for each.
1. CC1(C)CCN2CCC(C)(C)c3c(O)ccc1c32
2. O=C(N/N=C/C(Br)=C\c1ccccc1)c1ccc2nc[nH]c2c1
3. Cc1cc(C)c(C)c(S(=O)(=O)N2C(=S)NC(=O)C2C(C)C)c1C (configuration not stated)
4. OCCOCCn1c(C2CCCN2c2nc(-c3ccc(F)cc3)cs2)nc2cc(Cl)c(Cl)cc21 (configuration not stated)
5. COc1ccccc1/C=C/C(=O)NCC(=O)N/N=C/c1cc(Br)ccc1OC
6. COc1ccccc1C(c1c(N)n(C)c(=O)n(C)c1=O)C(C)[N+](=O)[O-] (configuration not stated)
7. O=C(Nc1ccccc1Cl)c1csc(-c2cccnc2)n1

1. 49.3 µM
2. > 100 µM
3. > 100 µM
4. > 100 µM
5. > 100 µM
6. 18 µM
7. > 100 µM

Reference source for all entries: PubChem BioAssay AID434987
